This collection of values is drawn from patent US4528133A.

Ki for assorted molecules
biological target: pancreatic elastase (UniProt P00772); test: Inhibition of pancreatic elastase (PE), Ki with synthetic nitroanilide substrates; type: biochemical; settings: substrate Suc-(Ala)4-Nan, read-out: Inhibition constant Ki, PE, Suc--(Ala)4--Nan
Sequence (P00772 27-266): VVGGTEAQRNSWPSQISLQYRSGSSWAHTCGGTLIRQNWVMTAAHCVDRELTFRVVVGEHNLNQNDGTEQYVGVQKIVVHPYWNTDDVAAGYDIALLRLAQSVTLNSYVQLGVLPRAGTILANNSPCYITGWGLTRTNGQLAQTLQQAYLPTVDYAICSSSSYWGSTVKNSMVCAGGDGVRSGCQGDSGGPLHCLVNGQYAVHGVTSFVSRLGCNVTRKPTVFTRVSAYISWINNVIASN
Where a SMILES comes first, the peptide text is derived from it. The star is where a group is joined. Cbz = O=C(OCc1ccccc1)*; Butyryl = CCCC(=O)*; NHiBu = CC(C)CN*; NHPr = CCCN*
Measured Attribute: Ki (µM)

Molecule	Recorded Value
CCCCCCCCCC=CCC(CC(=O)O)C(=O)N[C@@H](C)C(=O)N[C@@H](C)C(=O)N[C@@H](C)C(=O)NCC(C)C (stereo partly shown) [Dde--Ala--Ala--Ala--NH--iBu]	99
CCCNC(=O)[C@@H]1CCCN1C(=O)[C@H](C)NC(=O)[C@H](C)NC(=O)[C@H](CCC(=O)O)NC(=O)CCC [Btr--Glu--Ala--Ala--Pro--NH--Pr] (Butyryl-EAAP-NHPr)	178
CCCCCCCCCC=CCC(CC(=O)O)C(=O)N[C@@H](C)C(=O)N[C@@H](C)C(=O)N[C@@H](C)C(=O)NCC (stereo partly shown) [Dde--Ala--Ala--Ala--NH--Et]	2.5
CCNC(=O)[C@H](C)NC(=O)[C@H](C)NC(=O)[C@H](C)NC(=O)[C@H](CCC(=O)O)NC(=O)OCc1ccccc1 [Z--Glu--Ala--Ala--Ala--NH--Et] (Cbz-EAAA-NHEt)	28
CCCC(=O)N[C@@H](CC(=O)O)C(=O)N[C@@H](C)C(=O)N[C@@H](C)C(=O)N1CCC[C@H]1C(=O)NCC(C)C [Btr--Asp--Ala--Ala--Pro--NH--iBu] (Butyryl-DAAP-NHiBu)	120
CCNC(=O)[C@H](C)NC(=O)[C@H](C)NC(=O)[C@@H]1CCCN1C(=O)[C@H](CC(=O)O)NC(C)=O [Ac--Asp--Pro--Ala--Ala--NH--Et] (Ac-DPAA-NHEt)	25
CCCCCCCCCC=CCC(CC(=O)O)C(=O)N[C@@H](C)C(=O)N[C@@H](C)C(=O)N1CCC[C@H]1C(=O)NCCC (stereo partly shown) [Dde--Ala--Ala--Pro--NH--Pr]	0.5
